experiment: DRUGMATRIX: GABAA, Muscimol, Central radioligand binding (ligand: [3H] Muscimol); assay type: cell membranes, Rattus norvegicus, Wistar, Brain, Membrane; settings: Not Active = under 50% inhibition at 10 µM
quantity.kind: Ki

Solved cases below.
>  <compound>
C[C@](N)(Cc1ccc(O)c(O)c1)C(=O)O

>  <recorded.result>
Not Active

$$$$
>  <compound>
C[C@@H]1CN(c2c(F)c(N)c3c(=O)c(C(=O)O)cn(C4CC4)c3c2F)C[C@H](C)N1

>  <recorded.result>
Not Active

$$$$
>  <compound>
Nc1ncn([C@@H]2O[C@H](CO)[C@@H](O)[C@H]2O)c(=O)n1

>  <recorded.result>
Not Active

$$$$
>  <compound>
Nc1nc2ccc(OC(F)(F)F)cc2s1

>  <recorded.result>
Not Active

$$$$
>  <compound>
CN(C)CCCN1c2ccccc2Sc2ccccc21

>  <recorded.result>
Not Active

$$$$
>  <compound>
CC(C)CN(C[C@@H](O)[C@H](Cc1ccccc1)NC(=O)O[C@H]1CCOC1)S(=O)(=O)c1ccc(N)cc1

>  <recorded.result>
Not Active

$$$$

**Query** Record request: Ki value, item OCCN(CCO)c1nc(N2CCCCC2)c2nc(N(CCO)CCO)nc(N3CCCCC3)c2n1
**Result** Not Active

**Query** Try this compound next: CC(=O)[C@@]1(O)CC[C@H]2[C@@H]3C[C@H](C)C4=CC(=O)CC[C@]4(C)[C@H]3CC[C@@]21C
**Result** Not Active
